# targetOrSystem: human RORγt LBD (Homo sapiens, UniProt P51449)
# Construct: expressed in transfected cells; host or cells: HEK293T
# Sequence (P51449 258-518): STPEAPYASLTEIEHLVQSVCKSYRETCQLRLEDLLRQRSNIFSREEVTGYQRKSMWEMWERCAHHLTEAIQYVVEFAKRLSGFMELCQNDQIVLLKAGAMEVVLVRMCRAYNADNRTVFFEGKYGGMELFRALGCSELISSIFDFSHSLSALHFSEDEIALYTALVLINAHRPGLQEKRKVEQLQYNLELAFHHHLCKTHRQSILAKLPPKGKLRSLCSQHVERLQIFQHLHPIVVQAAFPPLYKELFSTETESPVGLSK
# experimentSummary: RORγt (LBD) Reporter Assay (GAL4 luciferase, HEK293T cells)
# Type: cell-based
# conditionSummary: HEK-293T, 6 µM compound
recordedEndpoint: inhibition at 6 µM

| compound | readoutValue |
| --- | --- |
| Cc1noc(C)c1C(O)c1ccc2nc(Cl)c(-c3ccccc3)c(Cl)c2c1 (stereo not drawn) [Example 1] | 48% |
| Cc1ncc(C(O)c2ccc3nc(N4CCC4)c(Cc4ccc(C(F)(F)F)cc4)c(Cl)c3c2)n1C (stereo not drawn) [Example 22a] | 92% |
| Cc1ncc(C(O)c2ccc3nc(Cl)c(-c4ccccc4)c(Cl)c3c2)n1C (stereo not drawn) [Example 13] | 43% |
| COc1nc2ccc(C(O)C3CN(C(=O)OC(C)(C)C)C3)cc2c(Cl)c1Cc1ccc(C(F)(F)F)cc1 (stereo not drawn) [Example 32] | 84% |
| COc1nc2ccc(C(O)c3cnc(C)n3C)cc2c(Cl)c1Cc1ccc(C(F)(F)F)cc1 (single isomer, unassigned) [Example 15b] | 100% |
| COc1nc2ccc(C(O)c3ccc(C)nc3C)cc2cc1Cc1ccc(C(F)(F)F)cc1 (stereo not drawn) [Example 16] | 88% |
| OC(c1ccncc1)c1ccc2nc(Cl)c(Cc3ccccc3)c(Cl)c2c1 (stereo not drawn) [Example 24] | 41% |
| COc1nc2c(C)cc(C(O)c3cncn3C)cc2c(Cl)c1Cc1ccc(S(C)(=O)=O)cc1 (stereo not drawn) [Example 10] | 59% |
| Cc1cc(C(O)c2cncn2C)cc2c(Cl)c(-c3ccccc3)c(Cl)nc12 (stereo not drawn) [Example 4] | -1% |
| Cn1cncc1C(O)c1ccc2nc(Cl)c(Cc3ccc(-n4cccn4)cc3)c(Cl)c2c1 (stereo not drawn) [Example 7] | 93% |
| COc1nc2ccc(C(O)C3CCN(C(C)=O)CC3)cc2c(Cl)c1Cc1ccc(C(F)(F)F)cc1 (stereo not drawn) [Example 6] | 95% |
| Cn1cncc1C(O)c1ccc2nc(Cl)c(-c3ccccc3)c(Cl)c2c1 (stereo not drawn) [Example 2] | 12% |
| COc1nc2ccc(C(O)c3cnnn3C)cc2c(Cl)c1Cc1ccc(C(F)(F)F)cc1 (stereo not drawn) [Example 17a] | 99% |
| Cc1ncc(C(O)c2ccc3nc(N4CCC4)c(Cc4ccc(-n5cccn5)cc4)c(Cl)c3c2)n1C (stereo not drawn) [Example 21a] | 91% |
| OC(c1ccncc1)c1ccc2nc(Cl)c(-c3ccccc3)c(Cl)c2c1 (stereo not drawn) [Example 25] | 47% |
| COc1nc2ccc(C(O)c3cncn3C)cc2c(Cl)c1Cc1ccc(C(F)(F)F)cc1 (stereo not drawn) [Example 18a] | 96% |
| COc1nc2ccc(C(O)c3ccc(C)nc3C)cc2c(Cl)c1Cc1ccc(C(F)(F)F)cc1 (single isomer, unassigned) [Example 14b] | 97% |
| OC(c1ccc(Cl)cc1)c1ccc2nc(Cl)c(-c3ccccc3Cl)c(Cl)c2c1 (stereo not drawn) [Example 26] | 68% |
| COc1nc2ccc(C(O)c3oc(C)nc3C)cc2c(Cl)c1Cc1ccc(C(F)(F)F)cc1 (stereo not drawn) [Example 19] | 79% |
| COc1nc2c(C)cc(C(O)c3cncn3C)cc2c(Cl)c1Cc1cccc(C(F)(F)F)c1 (stereo not drawn) [Example 11] | 24% |
| Cc1ccc(C(O)c2ccc3nc(N4CCC4)c(Cc4ccc(C(F)(F)F)cc4)c(Cl)c3c2)c(C)n1 (single isomer, unassigned) [Example 23b] | 98% |
| COc1nc2ccc(C(O)c3cnc(C)n3C)cc2c(Cl)c1Cc1ccc(F)cc1 (stereo not drawn) [Example 8a] | 40% |
| Cc1ncc(C(O)c2ccc3nc(N4CCC4)c(Cc4ccc(-n5cccn5)cc4)c(Cl)c3c2)n1C (single isomer, unassigned) [Example 21b] | 88% |
| Cc1ccc(C(O)c2ccc3nc(N4CCC4)c(Cc4ccc(C(F)(F)F)cc4)c(Cl)c3c2)c(C)n1 (stereo not drawn) [Example 23a] | 95% |
| COc1nc2ccc(C(O)c3cnnn3C)cc2c(Cl)c1Cc1ccc(C(F)(F)F)cc1 (single isomer, unassigned) [Example 17b] | 96% |
| Cc1ncc(C(O)c2ccc3nc(N4CCC4)c(Cc4ccc(C(F)(F)F)cc4)c(Cl)c3c2)n1C (single isomer, unassigned) [Example 22b] | 95% |
| OC(c1ccc(Cl)cc1)c1ccc2nc(Cl)c(-c3ccccc3)c(Cl)c2c1 (stereo not drawn) [Example 35] | 45% |
| COc1nc2ccc(C(O)c3cnc(C)n3C)cc2c(Cl)c1Cc1ccc(C(F)(F)F)cc1 (stereo not drawn) [Example 15a] | 101% |
| COc1nc2ccc(C(O)c3cncn3C)cc2c(Cl)c1Cc1ccc(C(F)(F)F)cc1 (single isomer, unassigned) [Example 18b] | 98% |
| COc1nc2c(C)cc(C(O)c3cncn3C)cc2c(Cl)c1Cc1ccc(-n2cccn2)cc1 (stereo not drawn) [Example 12] | 92% |
